- ASSAY INFO: soluble on expression in E. coli; label from the status in PepcDB or PDB records
MEASURED ENDPOINT: soluble on expression in E. coli

Some solved entries appear below for comparison.
MIPKVIHYCWFGGNPLPDNLKKYIKTWREQCPDYEIIEWNEHNYDVSKNVFMREAYTKKNFAYVSDYARLDIIYTYGGFYLDTDVELLKSLDPLRIHECFLAREISCDVNTGLIIGAVKGHHFLKSNMSIYDKSDLTSLNKTCVEVTTNLLINRGLKNKNIIQKIDDITIYPRNYFNPKNLLTGKVDCLTSVTYSIHHYEGSWKSSSFISDSLKIRVRLIIDFLFGYGTYRMLLRFLKLKKLEHHHHHH ... soluble
MGSDKIHHHHHHMAKLCHKPLHILFFRHSLLGRGGDKMVVCQANALARRGHQVTIRTATLATPFSLDDRIEINLTGSSSVAATLMDLFKGRFSFDLLIVDIIPLAVLAGIRFGRTKVIYYVQDWDVSYYRSLAFRSLIRLLYFVERSFLRIPVIVVSEHLLGKIGRTGIGATYVVENGIDLTLFNSKGRLHPAFAPGHIPTFLLFIRNDWRKGSDLALKVVKKLADRYPHAFGVVAVGNRPAIRPSQIDWIDKGFMDERQIADLMKQCDLFLYPSRHEGFGLMALEAFACGCLVVTTTAVGFAHDIENSLVAEVDDEQGLYSRLCCLLEKQIEIAPLVKKAEEFASEHPLELCMDRFCSVIEELNQ ... not soluble
MPKGNKKPNEKKEELEKFAKELQGSDSDEDAVVIEQPTVEPKLPQNDSSSSNKIVLSQAEKDLLRTELDKTEEEISTLKQVLSARQKHAAELKRKLGLTPFSELSQDINRSLKTVTDTDAYQKTAEVAAATSDTVKEKWNDMRNSSLFKSFESKLGSALNNAKMAASTSIDHLAGAARGPSQTGTPVAEEAKPIS ... soluble
MKSLVKVSLAALALAFAVSAYAAEKELIVATDTAFVPFEFKQGDKYVGFDIDLWDAIAKKLDLKYTLKPMDFSGIIPALQTKNVDLALAGITITDERKKAVDFSDGYYNSGLLVMVKADNNDIKSEADLQGKVLAVKSGTGSVDYAKANIKTKDLRQFPNIDNAYLELGTGRADAVLHDTPNILYFIKTAGNGQFKAVGESIKAQQYGVAFPQGSDLREKVNAALKSLKEDGTYAEIYKKWFGVEPK ... not soluble
FMFKHIIARTPARSLVDGLTSSHLGKPDYAKALEQHNAYIRALQTCDVDITLLPPDERFPDSVFVEDPVLCTSRCAIITRPGAESRRGETEIIEETVQRFYPGKVERIEAPGTVEAGDIMMVGDHFYIGESARTNAEGARQMIAILEKHGLSGSVVRLEKVLHLKTGLAYLEHNNLLAAGEFVSKPEFQDFNIIEIPEEESYAANCIWVNERVIMPAGYPRTREKIARLGYRVIEVDTSEYRKIDGGVSSMSLRF ... soluble

Per the records, this sequence ( MSLTTRVIALDLDGTLLTPKKTLLPSSIEALARAREAGYQLIIVTGRHHVAIHPFYQALALDTPAICCNGTYLYDYHAKTVLEADPMPVNKALQLIEMLNEHHIHGLMYVDDAMVYEHPTGHVIRTSNWAQTLPPEQRPTFTQVASLAETTQQVNAVWKFALTHDDLPQLQHFGKHVEHELGLECEWSWHDQVDIAHGGNSKGKRLTKWVEAQGWSMENVVAFGDNFNDISMLEAAGTGVAMGNADDAVKARANIVIGDNTTDSIAQFIYSHLIEGHHHHHH ) has soluble on expression in E. coli equal to not soluble
